# TARGET_DESC: HA of ca A/Panama/2007/99 (H3N2) virus (influenza A virus)
# TEST_DESCRIPTION: cell-based or functional assay
TEST_READOUT: Neutralization IC50, H3-Pa99 (µg/mL)
Unit µg/mL implied. Number only.

Item under review: Antibody 13 (antibody, V domains shown) VH: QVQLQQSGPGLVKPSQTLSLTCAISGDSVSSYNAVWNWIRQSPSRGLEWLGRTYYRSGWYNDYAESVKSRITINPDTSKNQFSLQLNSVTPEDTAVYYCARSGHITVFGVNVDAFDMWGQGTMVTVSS VL: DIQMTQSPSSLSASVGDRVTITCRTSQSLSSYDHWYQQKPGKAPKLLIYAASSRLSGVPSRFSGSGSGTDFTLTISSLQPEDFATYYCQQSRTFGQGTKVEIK . Reported Neutralization IC50, H3-Pa99? 2.62

Item under review: Antibody 14 (antibody, V domains shown) VH: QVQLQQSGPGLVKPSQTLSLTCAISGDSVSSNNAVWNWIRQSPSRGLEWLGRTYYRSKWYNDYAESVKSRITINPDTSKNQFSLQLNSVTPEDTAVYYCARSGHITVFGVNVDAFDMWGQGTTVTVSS VL: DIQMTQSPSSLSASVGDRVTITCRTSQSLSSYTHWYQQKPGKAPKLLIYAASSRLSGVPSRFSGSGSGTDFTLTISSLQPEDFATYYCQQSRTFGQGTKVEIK . Reported Neutralization IC50, H3-Pa99? 4.36

Item under review: Antibody 15 (antibody, V domains shown) VH: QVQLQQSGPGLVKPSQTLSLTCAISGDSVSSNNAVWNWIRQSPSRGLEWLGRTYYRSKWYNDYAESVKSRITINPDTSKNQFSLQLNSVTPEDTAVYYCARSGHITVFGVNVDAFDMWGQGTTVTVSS VL: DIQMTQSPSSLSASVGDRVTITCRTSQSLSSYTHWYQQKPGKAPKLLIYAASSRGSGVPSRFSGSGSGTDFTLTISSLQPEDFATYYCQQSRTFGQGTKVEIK . Reported Neutralization IC50, H3-Pa99? 3.39
